Below, each entry is listed with its recorded log10(IC50).
Molecular target: EGFR Del19/T790M/C797S (Homo sapiens, UniProt P00533, C797S/DEL746-750/T790M)
Sequence (P00533 with tags, fused parts or gaps DEL746-750/T790M/C797S): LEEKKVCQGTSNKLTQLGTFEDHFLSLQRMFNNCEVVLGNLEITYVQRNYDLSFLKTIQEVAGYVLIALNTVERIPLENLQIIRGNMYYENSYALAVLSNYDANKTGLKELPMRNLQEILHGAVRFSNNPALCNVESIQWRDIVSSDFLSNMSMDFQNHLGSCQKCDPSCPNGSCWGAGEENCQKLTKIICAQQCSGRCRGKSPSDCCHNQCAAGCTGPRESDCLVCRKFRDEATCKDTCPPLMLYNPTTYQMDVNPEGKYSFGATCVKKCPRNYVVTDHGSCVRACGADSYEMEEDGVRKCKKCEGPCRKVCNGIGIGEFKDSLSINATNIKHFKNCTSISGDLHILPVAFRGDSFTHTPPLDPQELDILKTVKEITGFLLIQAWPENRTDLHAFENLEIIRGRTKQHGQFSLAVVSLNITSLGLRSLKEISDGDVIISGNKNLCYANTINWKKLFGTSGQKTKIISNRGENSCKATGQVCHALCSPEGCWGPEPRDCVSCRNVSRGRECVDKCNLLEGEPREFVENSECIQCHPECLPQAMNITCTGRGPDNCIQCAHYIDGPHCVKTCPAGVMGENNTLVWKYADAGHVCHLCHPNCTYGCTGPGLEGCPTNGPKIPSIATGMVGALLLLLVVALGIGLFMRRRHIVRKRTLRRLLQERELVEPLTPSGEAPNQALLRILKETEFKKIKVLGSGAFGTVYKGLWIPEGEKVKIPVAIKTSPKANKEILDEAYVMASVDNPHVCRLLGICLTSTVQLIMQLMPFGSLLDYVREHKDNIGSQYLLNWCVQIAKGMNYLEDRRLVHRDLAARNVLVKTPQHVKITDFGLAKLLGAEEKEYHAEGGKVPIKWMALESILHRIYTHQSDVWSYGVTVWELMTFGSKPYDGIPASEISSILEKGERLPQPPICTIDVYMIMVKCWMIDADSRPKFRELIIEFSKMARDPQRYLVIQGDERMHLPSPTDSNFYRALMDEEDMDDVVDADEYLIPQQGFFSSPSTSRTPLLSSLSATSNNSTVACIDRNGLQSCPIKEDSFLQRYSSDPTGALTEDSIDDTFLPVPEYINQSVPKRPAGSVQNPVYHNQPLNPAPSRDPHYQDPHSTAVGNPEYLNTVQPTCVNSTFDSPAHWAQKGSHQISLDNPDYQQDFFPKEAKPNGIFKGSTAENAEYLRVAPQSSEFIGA
Assay: Biochemical EGFR kinase inhibition assay (Lance Ultra TR-FRET), triple mutant del19/T790M/C797S
Conditions: IC50 Del19/T790M/C797S (nM), 100 μM ATP
Structures can show the parent of a compound that is named as a salt.
Base-10 log of IC50, unit nM.

Guide cases for log10(IC50), answers given:
Short answer on EGFR Del19/T790M/C797S (Homo sapiens, UniProt P00533, C797S/DEL746-750/T790M) for O=S(=O)(C1CC1)n1cc(-c2nccc(Nc3cc(N4CCC(O)CC4)c(C#Cc4cnn(C5CC5(F)F)c4)cn3)n2)cn1 (stereo not drawn) , log10(IC50): -0.22

Short answer on EGFR Del19/T790M/C797S (Homo sapiens, UniProt P00533, C797S/DEL746-750/T790M) for CN1CCC2(CCN(c3cc(Nc4ccnc(-c5cnn(S(=O)(=O)C6CC6)c5)n4)ncc3C#Cc3cnn(C)c3)CC2)C1 [Example 297, formate] , log10(IC50): -1.00

// switching to the query compound
Per the reported EGFR Del19/T790M/C797S (Homo sapiens, UniProt P00533, C797S/DEL746-750/T790M) data, Cn1cnc(C#Cc2cnc(Nc3ccnc(-c4cnn(S(=O)(=O)C5CC5)c4)n3)cc2N[C@@H]2CC[C@H](O)C2)c1 has log10(IC50) of -0.30

---

Target: EGFR Del19/C797S (Homo sapiens, UniProt P00533, C797S/DEL746-750)
Sequence (P00533 with tags, fused parts or gaps DEL746-750/C797S): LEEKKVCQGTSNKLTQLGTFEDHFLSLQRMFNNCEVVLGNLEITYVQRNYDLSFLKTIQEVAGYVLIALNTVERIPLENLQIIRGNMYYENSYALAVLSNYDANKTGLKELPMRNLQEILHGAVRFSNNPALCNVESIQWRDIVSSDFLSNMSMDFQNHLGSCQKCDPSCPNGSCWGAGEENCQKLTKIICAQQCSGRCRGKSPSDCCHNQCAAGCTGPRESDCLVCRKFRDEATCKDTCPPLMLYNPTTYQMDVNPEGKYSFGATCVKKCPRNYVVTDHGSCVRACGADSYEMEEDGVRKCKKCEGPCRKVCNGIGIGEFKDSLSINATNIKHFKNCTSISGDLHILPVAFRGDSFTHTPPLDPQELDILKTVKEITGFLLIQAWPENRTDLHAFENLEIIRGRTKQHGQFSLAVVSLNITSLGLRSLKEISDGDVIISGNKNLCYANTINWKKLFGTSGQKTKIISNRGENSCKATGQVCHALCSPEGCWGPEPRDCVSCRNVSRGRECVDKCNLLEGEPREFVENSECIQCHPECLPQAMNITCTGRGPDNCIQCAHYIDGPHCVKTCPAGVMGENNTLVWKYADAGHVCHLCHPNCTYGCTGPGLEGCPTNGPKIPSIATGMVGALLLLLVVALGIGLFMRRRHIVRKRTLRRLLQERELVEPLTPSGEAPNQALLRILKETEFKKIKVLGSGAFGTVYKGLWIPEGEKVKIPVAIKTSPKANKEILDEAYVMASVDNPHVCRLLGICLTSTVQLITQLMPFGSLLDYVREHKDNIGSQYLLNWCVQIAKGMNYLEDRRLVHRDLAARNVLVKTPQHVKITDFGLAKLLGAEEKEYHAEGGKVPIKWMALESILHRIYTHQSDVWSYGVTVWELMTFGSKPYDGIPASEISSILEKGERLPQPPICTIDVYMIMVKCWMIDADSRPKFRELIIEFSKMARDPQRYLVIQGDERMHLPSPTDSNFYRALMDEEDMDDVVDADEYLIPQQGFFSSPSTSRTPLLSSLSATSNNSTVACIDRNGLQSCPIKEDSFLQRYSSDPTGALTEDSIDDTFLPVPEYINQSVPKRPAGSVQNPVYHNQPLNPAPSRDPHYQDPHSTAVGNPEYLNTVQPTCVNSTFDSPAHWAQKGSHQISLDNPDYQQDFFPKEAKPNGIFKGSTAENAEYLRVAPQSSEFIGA
Test: Biochemical EGFR kinase inhibition assay (Lance Ultra TR-FRET), double mutant del19/C797S
Conditions: IC50 Del19/C797S (nM), 100 μM ATP
Recorded log10(IC50) values for a group of compounds are listed next.
Would you kindly interpret these values as log10 of IC50 expressed in nM?

The cases that follow already have their log10(IC50) on record.
The value of log10(IC50) recorded for O=C(N1CCC(C#Cc2cnc(Nc3ccnc(-c4cnn(S(=O)(=O)C5CC5)c4)n3)cc2NC2CCC(O)CC2)C1)C(F)(F)F (stereo not drawn) [Example 414] when tested on EGFR Del19/C797S (Homo sapiens, UniProt P00533, C797S/DEL746-750) reads 0.26

Sample CC1(CO)CCN(c2cc(Nc3ccnc(-c4cnn(S(=O)(=O)C5CC5)c4)n3)ncc2C#Cc2cnn(CC(F)(F)F)c2)CC1 [Example 348] , system: EGFR Del19/C797S (Homo sapiens, UniProt P00533, C797S/DEL746-750). Its log10(IC50) is 0.69

Known value: EGFR Del19/C797S (Homo sapiens, UniProt P00533, C797S/DEL746-750) log10(IC50) of the compound CC1(CO)CCN(c2cc(Nc3ccnc(-c4cnn(S(=O)(=O)C5CC5)c4)n3)ncc2C#Cc2ncc(CN3CCOCC3)cn2)CC1 [Example 193] equals -0.15

# lookup: O=S(=O)(C1CC1)n1cc(-c2nccc(Nc3cc(N4CCC(CCO)CC4)c(C#Cc4cnn(CCF)c4)cn3)n2)cn1 [Example 17] on EGFR Del19/C797S (Homo sapiens, UniProt P00533, C797S/DEL746-750), log10(IC50) = 1.01

Measured log10(IC50) for this entry O=S(=O)(C1CC1)n1cc(-c2nccc(Nc3cc(NC4CCC(O)CC4)c(C#CC4CCOC4)cn3)n2)cn1 (stereo not drawn) [Example 198] on EGFR Del19/C797S (Homo sapiens, UniProt P00533, C797S/DEL746-750): 0.56

Okay, now this compound:
Fill in: EGFR Del19/C797S (Homo sapiens, UniProt P00533, C797S/DEL746-750) log10(IC50) for O=S(=O)(C1CC1)n1cc(-c2nccc(Nc3cc(N[C@H]4CC[C@@H](O)CC4)c(C#Cc4cnn(C(F)(F)F)c4)cn3)n2)cn1 [Example 102] = 1.42

Every entry's value here was drawn from patent US11981658B2.
